Target: AEA-DA lipid probe targets in Neuro2a cells (Mus musculus, UniProt P52019)
Sequence (P52019 whole entry): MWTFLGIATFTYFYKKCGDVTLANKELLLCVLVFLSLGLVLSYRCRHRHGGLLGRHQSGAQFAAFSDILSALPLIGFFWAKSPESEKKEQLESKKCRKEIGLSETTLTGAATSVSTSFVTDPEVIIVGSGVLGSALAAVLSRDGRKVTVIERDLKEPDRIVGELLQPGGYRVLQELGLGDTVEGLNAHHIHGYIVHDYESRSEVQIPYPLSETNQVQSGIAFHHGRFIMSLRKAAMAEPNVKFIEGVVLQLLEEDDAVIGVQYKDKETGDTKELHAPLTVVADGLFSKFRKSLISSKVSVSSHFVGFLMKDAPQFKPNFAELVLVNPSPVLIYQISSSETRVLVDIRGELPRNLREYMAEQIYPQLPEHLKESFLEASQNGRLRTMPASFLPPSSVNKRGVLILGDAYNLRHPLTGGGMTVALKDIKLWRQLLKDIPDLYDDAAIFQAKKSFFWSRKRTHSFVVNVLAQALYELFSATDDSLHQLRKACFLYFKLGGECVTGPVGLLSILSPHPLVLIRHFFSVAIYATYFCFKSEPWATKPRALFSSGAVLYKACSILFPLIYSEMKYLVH
Conditions: competitor 25 μM
Some molecules, each annotated with its measured SILAC ratio Sqle.

molecule | SILAC ratio Sqle
O=C(/C=C/c1cccnc1)NCCCCC1CCN(C(=O)c2ccccc2)CC1 [FK-866, reference compound] | 1.1
CN1CCN(C(=O)c2c(-c3ccccc3)c3cc([N+](=O)[O-])ccc3n2C)CC1 | 1.3
C=CCN(C)CCCCCCOc1ccc(C(=O)c2ccc(Br)cc2)c(F)c1 [Ro 48-8071, reference compound] | 1.0
CN1CCN(C(=O)c2[nH]c3ccc([N+](=O)[O-])cc3c2-c2ccccc2)CC1 | 1.5
